# assay_summary: protein stability index of a GFP-peptide fusion (yeast GPS) (PSI 1-4); higher = more stable; sorted into four equal gates, so the index is relative within each strain
# stated_conditions: ubr1∆
Parameter: protein stability index. Scope: all listed entries.

Read the entry NESSSNTTVISDKQRRL [DIS3] and write its reported protein stability index.
3.05

Read the entry LSFINPKTGKVERSEAI [SEC65] and write its reported protein stability index.
3.22

Read the entry QSQQAQPSDVMFNDLNS [MED2] and write its reported protein stability index.
3.11

Read the entry TEGEPKKKRGFLGLFGR [SRP68] and write its reported protein stability index.
3.01

Read the entry RERIKRGAHVEKTMVKK [PRP8] and write its reported protein stability index.
2.78

Read the entry IAEGQKKFATVPTGGAS [RPP2B] and write its reported protein stability index.
2.53

Read the entry ETNGYDPFSIYGFSNKE [SNF5] and write its reported protein stability index.
2.03

Read the entry GTLGEIFIRCNNVLYIR [SMX3] and write its reported protein stability index.
3.26

Read the entry VNNPQEETSHLLTVTPG [RPN10] and write its reported protein stability index.
2.86

Read the entry PSSMATLLKNLRKKLNF [YJR042W/NUP85] and write its reported protein stability index.
2.89

Read the entry PHGFPSRMTVGKMIELI [RET1] and write its reported protein stability index.
2.46

Read the entry IPPDQQRLIFAGKQLED [RPS31] and write its reported protein stability index.
3.16

Read the entry YQWRDLIARRDDESPRF [RRP6] and write its reported protein stability index.
3.26
